Source of measurements: ChEMBL document CHEMBL1156482

- System Under Test: C-X-C chemokine receptor type 4 (Homo sapiens, UniProt P61073, D262N)
- Sequence (P61073 whole entry D262N): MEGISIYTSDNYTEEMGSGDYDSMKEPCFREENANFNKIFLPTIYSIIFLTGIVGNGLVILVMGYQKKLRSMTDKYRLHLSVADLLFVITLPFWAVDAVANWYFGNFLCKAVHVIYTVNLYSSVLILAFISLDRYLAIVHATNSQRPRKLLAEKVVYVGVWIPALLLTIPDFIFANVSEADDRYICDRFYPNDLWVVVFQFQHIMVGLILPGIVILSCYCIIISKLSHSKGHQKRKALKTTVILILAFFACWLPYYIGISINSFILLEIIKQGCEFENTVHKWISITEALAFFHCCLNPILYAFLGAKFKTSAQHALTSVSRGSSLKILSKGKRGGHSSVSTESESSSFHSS
- Run Description: Antagonist activity at human CXCR4 D262N mutant expressed in COS7 cells coexpressing G protein Gqi4myr assessed as inhibition of CXCL12-induced phosphatidylinositol turnover
- Type: functional, cell-based, COS-7
Kindly supply the reported pKi values for the records listed here.
Scale: negative log10 of molar concentration, which is what pKi denotes.

[Q] GET /values?readout=pKi&item= `c1ccc(CNCc2ccc(CN3CCCNCCNCCCNCC3)cc2)cc1`
[A] 5.64

[Q] Given the compound `c1ccc(CNCc2ccc(CN3CCCNCCNCCCNCC3)cc2)nc1` , what is its reported pKi?
[A] 5.11

[Q] Recorded pKi for `Cc1ccc(CN2CCCNCCNCCCNCC2)cc1` , please?
[A] 5.54

---

- System Under Test: C-X-C chemokine receptor type 4 (Homo sapiens, UniProt P61073, F172A)
- Sequence (P61073 whole entry F172A, the tested form may be a part): as the sequence (P61073 whole entry D262N) above, with F172A, N262D counted along it
- Run Description: Displacement of [125I]12G5 antibody from transmembrane domain 4 of human CXCR4 F172A mutant expressed in COS7 cells
- Format: cell-based, COS-7
Parameter Measured: pKi
pKi is a log-scale quantity: -log10 of the concentration expressed in molar.

[Q] I'd like to know its pKi. The molecule in question is `c1ccc(CNCc2ccc(CN3CCCNCCNCCCNCC3)cc2)nc1`
[A] 6.25

---

- System Under Test: C-X-C chemokine receptor type 4 (Homo sapiens, UniProt P61073, H281A)
- Sequence (P61073 whole entry H281A): as the sequence (P61073 whole entry D262N) above, with N262D, H281A counted along it
- Run Description: Antagonist activity at human CXCR4 H281A mutant expressed in COS7 cells coexpressing G protein Gqi4myr assessed as inhibition of CXCL12-induced phosphatidylinositol turnover
- Type: functional, cell-based, COS-7
So I've got a bunch of molecules here, and I need their Ki values.
Give just the number in nM; leave the unit off.

[Q] Quick check: Ki on C-X-C chemokine receptor type 4 (Homo sapiens, UniProt P61073, H281A), item `Cc1ccc(CN2CCCNCCNCCCNCC2)cc1` ?
[A] 22000

[Q] C-X-C chemokine receptor type 4 (Homo sapiens, UniProt P61073, H281A) / Ki / `c1ccc(CNCc2ccc(CN3CCCNCCNCCCNCC3)cc2)cc1` : value?
[A] 1800

[Q] Write down the reported Ki of `c1ccc(CNCc2ccc(CN3CCCNCCNCCCNCC3)cc2)nc1` , test system: C-X-C chemokine receptor type 4 (Homo sapiens, UniProt P61073, H281A).
[A] 1600

---

- System Under Test: C-X-C chemokine receptor type 4 (Homo sapiens)
- Run Description: Displacement of [125I]12G5 antibody from human wild type CXCR4 expressed in COS7 cells
- Assay type: cell-based, COS-7
Parameter Measured: pKi
Here pKi is given on a logarithmic scale as minus log10 of the concentration in mol/L.

[Q] Notebook entry, C-X-C chemokine receptor type 4 (Homo sapiens) assay: pKi of `c1ccc(CNCc2ccc(CN3CCCNCCNCCCNCC3)cc2)nc1` = ?
[A] 6.96

---

- System Under Test: C-X-C chemokine receptor type 4 (Homo sapiens, UniProt P61073, I259W)
- Run Description: Displacement of [125I]12G5 antibody from transmembrane domain 6 of human CXCR4 I259W mutant expressed in COS7 cells
- Type: cell-based, COS-7
Parameter Measured: Ki (µM)
Quick reminder: number only, in µM, skip the unit.

[Q] Dear colleague, I am looking for the recorded Ki of the following compound: `c1ccc(CNCc2ccc(CN3CCCNCCNCCCNCC3)cc2)nc1`
[A] 18
